// values below are reported inhibition
# Experimental System: Solute carrier family 2, facilitated glucose transporter member 1 (Homo sapiens) (UniProt P11166)
# Sequence (P11166 whole entry): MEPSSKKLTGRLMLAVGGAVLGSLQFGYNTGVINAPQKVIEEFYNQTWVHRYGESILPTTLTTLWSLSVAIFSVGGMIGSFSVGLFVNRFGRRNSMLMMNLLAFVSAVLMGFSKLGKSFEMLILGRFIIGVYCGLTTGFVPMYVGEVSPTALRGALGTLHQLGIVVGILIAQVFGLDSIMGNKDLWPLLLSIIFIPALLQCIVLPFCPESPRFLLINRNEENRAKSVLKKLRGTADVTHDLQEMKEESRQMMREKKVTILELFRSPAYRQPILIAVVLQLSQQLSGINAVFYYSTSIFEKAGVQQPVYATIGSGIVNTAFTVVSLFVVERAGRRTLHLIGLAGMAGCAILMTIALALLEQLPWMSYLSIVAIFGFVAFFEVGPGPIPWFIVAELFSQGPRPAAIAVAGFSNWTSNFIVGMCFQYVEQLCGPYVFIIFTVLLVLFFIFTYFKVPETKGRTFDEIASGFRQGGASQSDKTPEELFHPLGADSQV
# Assay Overview: ST_JUDE_LEISH: Cytotoxicity at 2uM final concentration against transgenic Leishmania Mexicana promastigotes LmGLUT1 that are glucose transport deficient and complemented with the human glucose transporter GLUT1. Activity is measured by DNA content using SYBR green in vitro
# Format: functional
Write the answer as a number in %, unit excluded.

Recorded inhibition, per entry:
{"Compound": "CC(=O)c1ccc(N2CCN(CCC3(c4ccc(Cl)c(Cl)c4)COCN(C(=O)c4ccccc4)C3)CC2)cc1 (centres undefined)", "inhibition [%]": 4.7}
{"Compound": "COc1ccc(-c2cccc(NC(=O)c3cccc(Cl)c3)c2)cc1CN1CCC(O)CC1", "inhibition [%]": 8.59}
{"Compound": "CCN(CCCN1CCCCC1)c1cc(C)nc(Nc2cc(C(F)(F)F)ccc2C)n1", "inhibition [%]": -1.35}

Sample COc1ccc2nc3cc(Cl)ccc3c(NCCCCN3CCNCC3)c2c1 ; inhibition observed: 6.28

Sample c1ccc(-c2cc3cccc(-c4nc5cnccc5[nH]4)c3o2)cc1 ; inhibition observed: 10.8

Sample CN(C)c1ccc(CN2CCCCC(NC(=O)c3cc(-c4ccccc4Cl)cs3)C2)cc1 (centres undefined) ; inhibition observed: 2.84

Sample O=C(Nc1ccc(F)cc1)c1nc2ccccc2nc1Cl ; inhibition observed: 4.1

Sample CCn1cnc2c(N3CCCC3=O)cc(C(=O)N[C@@H](Cc3ccccc3)[C@H](O)CNC3CCCCC3)cc21 ; inhibition observed: 2

Sample COc1ccc(C(=O)CCC(=O)N(Cc2ccc(-c3ccc(CNCCc4ccc(S(C)(=O)=O)cc4)cn3)cc2)C(C)CN(C)C)cc1F (centres undefined) ; inhibition observed: 3.43

====

# Experimental System: Solute carrier family 2, facilitated glucose transporter member 1 (Homo sapiens) (UniProt P11166)
# Assay Overview: ST_JUDE_LEISH: Cytotoxicity at 2uM final concentration against transgenic Leishmania Mexicana promastigotes LmGLUT1 that are glucose transport deficient and complemented with the human glucose transporter GLUT1. Activity is measured by DNA content using SYBR green in vitro
# Format: functional
Endpoint Label: inhibition (%)
Write the answer as a number in %, unit excluded.

Recorded inhibition, per entry:
{"Molecule": "O=C(Nc1ccc(C(=O)N2CCN(CCN3CCN(c4cccc(C(F)(F)F)c4)CC3)CC2)cc1)c1ccc(OC(F)(F)F)cc1", "inhibition (%)": -1.35}
{"Molecule": "COCCN(C(=O)Cc1cccs1)C(C(=O)NCc1ccc(OC)cc1)c1ccc(C(C)C)cc1 (centres undefined)", "inhibition (%)": 2.96}
{"Molecule": "CC(Oc1c(C2CCN(CCCCNC(=O)c3ccc(-c4ccc(Cl)cc4)cc3)CC2)ccc2c1CCCC2)C(N)=O (centres undefined)", "inhibition (%)": -0.63}
{"Molecule": "C=CCc1cc(Br)ccc1OCCCOc1c(C)nc(N)nc1N", "inhibition (%)": 73.6}

Sample O=C(NCCCCN1CCN(c2ccc3c(c2)CCC3)CC1)c1ccc(NC(=O)c2ccc(Cl)cc2)cc1 ; inhibition observed: 55.3

Sample CC(=O)NCCNc1nccc(N2CCc3ncnc(Nc4ccc(OCc5ccccn5)c(Cl)c4)c3C2)n1 ; inhibition observed: 0.91

Sample CCN(CC)CCCC(C)Nc1c2ccccc2nc2c1ccc1ccccc12 (centres undefined) ; inhibition observed: 7.99

Sample COc1cccc(C(=O)Nc2ccc(-c3nc4ccccc4[nH]3)cc2)c1 ; inhibition observed: 3.48

Sample O=C(/C=C/c1ccc(Cl)c(Cl)c1)NCCCCCN1CCC(NC(=O)c2ccc(F)cc2)CC1 ; inhibition observed: 6.17
